- Experimental protocol: Half life in Han-Wistar rat at 2.54 to 5.4 uM/kg, po
- Assay type: ADME, organism-based
- Test settings: in vivo
Test readout: half-life (h)

Examples from the recorded data:
Cc1nc(C)c(-c2ccc([C@H]3CC[C@H](Cc4nnn[nH]4)CC3)cc2)nc1C(N)=O : 9
Cc1nc(C)c(-c2ccc3c(c2)CC[C@]32CC[C@@H](CC(=O)O)CC2)nc1C(N)=O : 7.5

[1] Cc1nc(C)c(-c2ccc(C34CCC(C(=O)O)(CC3)CC4)cc2)nc1C(N)=O
[2] Cc1nc(C)c(-c2ccc(C3CCC(CC(=O)O)CC3)cc2)nc1C(N)=O (centres undefined) [AZD-7687]
**Query** Between 1 and 2 , which one shows the larger half-life value? Give the label of your selection.
**Result** 2
